Assay: Antagonist activity at endothelin A receptor in Mongolian gerbil spiral modiolar artery assessed as inhibition of ET-1-induced vasoconstriction at 0.1 to 1 uM […] followed by compound washout and again ET-1 addition by video microscopic analysis
Format: tissue-based, Meriones unguiculatus
Field: pA2. Provide a value for each of the molecules that follow.
Answers are plain numbers.

# count of solved cases: 3
SAMPLE_SMILES	pA2
CC1(C)C(=O)CC[C@]2(C)[C@H]3CCc4ccc(OCCO)cc4[C@]3(C)CC[C@@H]12	6.5
CC1(C)[C@@H]2CC[C@]3(C)[C@H](CC[C@@H]4CC[C@@]5(O)C[C@]43C=N5)[C@@]2(C)CCC12OCCO2	6.5
CC1(C)C(=O)CC[C@]2(C)[C@H]3CC[C@@H]4CCC(=O)C[C@@]4(C#N)[C@]3(C)CC[C@@H]12	6.9

Give its pA2 value. Item: `CC1(C)C(=O)CC[C@]2(C)[C@H]3CCc4ccc(O)cc4[C@]3(C)CC[C@@H]12`
6.7

---

Test: Antagonist activity at endothelin A receptor in Mongolian gerbil spiral modiolar artery assessed as inhibition of ET-1-induced vasoconstriction at 0.1 to 1 uM […] followed by compound washout and again ET-1 addition by video microscopic analysis
Assay type: tissue-based, Meriones unguiculatus
MEASUREMENT_LABEL: pA2

# count of solved cases: 2
COMPOUND	OBSERVED_MEASUREMENT
CC1(C)CC[C@]2(C(=O)O)CC[C@]3(COC(=O)/C=C/c4ccc(O)c(O)c4)C(=CC[C@@H]4[C@@]5(C)CCC(=O)C(C)(C)[C@@H]5CC[C@]43C)[C@@H]2C1	7.1
CC1(C)[C@@H]2CC[C@]3(C)[C@H](CC[C@@H]4CC=C(O[Si](C)(C)C(C)(C)C)C[C@]43C=N)[C@@]2(C)CCC12OCCO2 (single isomer, unassigned; (-))	7

Give its pA2 value. Item: `CC1(C)C(=O)CC[C@]2(C)[C@H]3CC[C@@H]4CCC(=O)C=C4[C@]3(C)CC[C@@H]12`
6.7
